# TARGET_UNDER_TEST: T1, Human EphA2 (Ecto) (Human, UniProt P29317 24-537)
# T1 construct: extracellular domain
# METHOD_DESCRIPTION: FP competition, tracer Compound 18
Starred links: 1 amine or outer side, 2 acyl side, 3 side chain; linkers in the order of their positions; H or OH if unused. Positions of bridges follow the written chain, without caps; N, C: chain ends. Non-standard residues stand in square brackets, D forms with d. Primed or numbered codes have the meaning given here. No end group written: not given here. TBMB′ = 1,3,5-tris(bromomethyl)benzene, 1,3,5-tris(methylene)benzene core, three thioethers to Cys; 1Nal = N[C@@H](Cc1cccc2ccccc12)C(=O)O; TBMB = c1c(C[*:1])cc(C[*:3])cc1C[*:2]; hArg = N=C(N)NCCCC[C@H](N)C(=O)O; Cba = N[C@@H](CC1CCC1)C(=O)O; Tle = CC(C)(C)[C@H](N)C(=O)O; Aib = CC(C)(N)C(=O)O; βAla = NCCC(=O)O; Sar = CNCC(=O)O
RESULT_TYPE: pKi
On this scale, pKi is minus log10 of a concentration expressed in M (mol/L).

Examples with their reported pKi follow.
[βAla][Sar][Sar][Sar][Sar][Sar][Sar][Sar][Sar][Sar][Sar]HDVPCPWGPFWCPVNRPGC (linker 16-23-30 via TBMB) [Bicycle Compound 223] :: 8.89
Ac-[Sar][Sar]A[dD][Cba]TCPWGPFWCPVNRPGC (linker 7-14-21 via TBMB′) [Bicycle Compound 160] :: 8.59
Ac-[Sar][Sar][dA]HDVPCPWGPFWCPVNRPGC (linker 8-15-22 via TBMB) [Bicycle Compound 194] :: 8.92

The reported value for AHDVPCP[1Nal]G[Aib]FWCP[Tle]N[hArg]PGC (linker 6-13-20 via TBMB) [Bicycle Compound 191] in terms of pKi is 8.51

The reported value for Ac-[Sar][Sar]A[dD]VTCPWGPAWCPVNRPGC (linker 7-14-21 via TBMB′) [Bicycle Compound 173] in terms of pKi is 8.17

Recorded values, source patent US11814447B2.
